# Target: SmBRD3(2) (Schistosoma mansoni, UniProt A0A5K4ESD7)
# Sequence (A0A5K4ESD7 entry or part of it): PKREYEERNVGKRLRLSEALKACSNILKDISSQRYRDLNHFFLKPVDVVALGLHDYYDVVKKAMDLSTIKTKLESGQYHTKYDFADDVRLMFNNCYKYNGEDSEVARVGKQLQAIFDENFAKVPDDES
# Test summary: biochemical
# Type: binding
Measured parameter: SmBRD3(2) Kd

Compound: CCOC(=O)c1ccc(-c2ccc3c(c2)[C@H](Nc2ccc4sccc4c2)C[C@H](C)N3C(C)=O)cc1 [Compound 19]
Target: SmBRD3(2) (Schistosoma mansoni, UniProt A0A5K4ESD7)
Measured value: No binding

Compound: CCOC(=O)c1ccc(-c2ccc3c(c2)[C@H](Nc2ccc4[nH]ccc4c2)C[C@H](C)N3C(C)=O)cc1 [Compound 20]
Target: SmBRD3(2) (Schistosoma mansoni, UniProt A0A5K4ESD7)
Measured value: No binding

Compound: CCOC(=O)c1ccc(-c2ccc3c(c2)[C@H](Nc2ccc4ccsc4c2)C[C@H](C)N3C(C)=O)cc1 [Compound 16]
Target: SmBRD3(2) (Schistosoma mansoni, UniProt A0A5K4ESD7)
Measured value: No binding

###

# Test summary: chromLogD assay
# Type: physicochemical
# Recorded conditions: reversed phase HPLC column (Gemini NX C18), pH 7.4
Item-by-item account of chromatographic logD
Measured parameter: chromatographic logD

Compound: CC(=O)N1c2ccc(-c3ccc(C(=O)O)cc3)cc2[C@H](Nc2ccc3ncsc3c2)C[C@@H]1C [Compound 14]
Measured value: 1.78

Compound: CCOC(=O)c1ccc(-c2ccc3c(c2)[C@@H](Nc2ccc4ccsc4c2)C[C@@H](C)N3C(C)=O)cc1 [Compound 17]
Measured value: 7.61

Compound: CC(=O)N1c2ccc(-c3ccc(C(=O)O)cc3)cc2[C@@H](Nc2ccc3ccsc3c2)C[C@H]1C [Compound 10]
Measured value: 2.83

Compound: CC(=O)N1c2ccc(-c3ccc(C(=O)O)cc3)cc2[C@H](Nc2ccc3ccsc3c2)C[C@@H]1C [Compound 9]
Measured value: 2.83

Compound: CCOC(=O)c1ccc(-c2ccc3c(c2)[C@H](Nc2ccc4ncccc4c2)C[C@H](C)N3C(C)=O)cc1 [Compound 22]
Measured value: 5.95

###

# Target: SmBRD3(2) (Schistosoma mansoni, UniProt A0A5K4ESD7)
# Test summary: biochemical
# Type: binding
# Recorded conditions: ITC; single run ± error of curve fit; Repeat 2; read-out: SmBRD3(2) Kd, Repeat 2
Overview of reported Kd across a group of compounds:

Input smiles: CC(=O)N1c2ccc(-c3ccc(C(=O)O)cc3)cc2[C@H](Nc2ccc3ccoc3c2)C[C@@H]1C
Target: SmBRD3(2) (Schistosoma mansoni, UniProt A0A5K4ESD7)
Kd / nM: 1300
--
Input smiles: CC(=O)N1c2ccc(-c3ccc(C(=O)O)cc3)cc2[C@H](Nc2ccc3ncsc3c2)C[C@@H]1C
Target: SmBRD3(2) (Schistosoma mansoni, UniProt A0A5K4ESD7)
Kd / nM: 1270
--
Input smiles: CC(=O)N1c2ccc(-c3ccc(C(=O)O)cc3)cc2[C@H](Nc2ccc3ncccc3c2)C[C@@H]1C
Target: SmBRD3(2) (Schistosoma mansoni, UniProt A0A5K4ESD7)
Kd / nM: 361
--
Input smiles: CC(=O)N1c2ccc(-c3ccc(C(=O)O)cc3)cc2[C@H](Nc2ccc3sccc3c2)C[C@@H]1C
Target: SmBRD3(2) (Schistosoma mansoni, UniProt A0A5K4ESD7)
Kd / nM: 543
--
Input smiles: CC(=O)N1c2ccc(-c3ccc(C(=O)O)cc3)cc2[C@H](Nc2ccc3ccsc3c2)C[C@@H]1C
Target: SmBRD3(2) (Schistosoma mansoni, UniProt A0A5K4ESD7)
Kd / nM: 778
--
Input smiles: CC(=O)N1c2ccc(-c3ccc(C(=O)O)cc3)cc2[C@H](Nc2ccc3[nH]ccc3c2)C[C@@H]1C
Target: SmBRD3(2) (Schistosoma mansoni, UniProt A0A5K4ESD7)
Kd / nM: 652

Reference for the values: paper PMC10726355
